Consider the following molecules and their measured Cell viability by MTT, percent of control readings.
- Test system: human monocyte-macrophages (HMMs)
- protocol details: MTT toxicity assay, HMMs, seven days (Example 3)
- Format: cell-based
- conditions used: 0.5 uM, 7 days, MTT, mean of three experiments
measure name: Cell viability by MTT, percent of control

{"molecule": "COc1ccc([C@@H]2Sc3ccccc3N(CCN(C)C)C(=O)[C@@H]2OC(C)=O)cc1", "quantitative readout": 97.10}
{"molecule": "CN(C)CC(=O)Nc1ccc2[nH]c(=O)c3ccccc3c2c1.Cl", "quantitative readout": 106.63}
{"molecule": "CC(=O)CCCCn1c(=O)c2c(ncn2C)n(C)c1=O", "quantitative readout": 98.73}
{"molecule": "O=C1CCc2cc(OCCCCc3nnnn3C3CCCCC3)ccc2N1", "quantitative readout": 105.05}
{"molecule": "NC(=O)c1cccc(N)c1 [3-AB, 3-aminobenzamide]", "quantitative readout": 115.25}
{"molecule": "COc1ccccc1Oc1c(NS(=O)(=O)c2ccc(C(C)(C)C)cc2)nc(-c2ncccn2)nc1OCCO [bosentan MH, Bosentan monohydrate]", "quantitative readout": 91.59}
{"molecule": "O=C1NCCc2c(OCCCCN3CCCCC3)cccc21", "quantitative readout": 106.61}

###

Cell viability of bVSMCs after seven days (MTT signal, relative to control): recorded values
- Tested on: bovine vascular smooth muscle cells (bVSMCs)
- Format: cell-based
- conditions used: 2 uM, 7 days, MTT, mean of three experiments
Marks after values point to notes of the source that are not given here.
measure name: Cell viability of bVSMCs after seven days (MTT signal, relative to control)

{"compound": "O=C1NCCc2c(OCCCCN3CCCCC3)cccc21 [DPQ]", "result": "92.11*"}
{"compound": "O=C1CCc2cc(OCCCCc3nnnn3C3CCCCC3)ccc2N1 [cilostazol]", "result": "86.31*"}
{"compound": "CC(=O)CCCCn1c(=O)c2c(ncn2C)n(C)c1=O [Pentoxifylline, pentoxifylline]", "result": "92.19*"}
{"compound": "COc1ccc([C@@H]2Sc3ccccc3N(CCN(C)C)C(=O)[C@@H]2OC(C)=O)cc1 [Diltiazem, diltiazem]", "result": "89.48*"}
{"compound": "NC(=O)c1cccc(N)c1 [3-AB, 3-aminobenzamide]", "result": 94.53}
{"compound": "CN(C)CC(=O)Nc1ccc2[nH]c(=O)c3ccccc3c2c1.Cl [PJ34]", "result": 92.33}
{"compound": "COc1ccccc1Oc1c(NS(=O)(=O)c2ccc(C(C)(C)C)cc2)nc(-c2ncccn2)nc1OCCO [bosentan MH, Bosentan monohydrate]", "result": "91.91*"}

###

- Tested on: bovine vascular smooth muscle cells (bVSMCs)
- Format: cell-based
- conditions used: 50 uM, 7 days, MTT, mean of three experiments
Marks after values point to notes of the source that are not given here.
measure name: Cell viability of bVSMCs after seven days (MTT signal, relative to control)

{"molecule": "CC(=O)CCCCn1c(=O)c2c(ncn2C)n(C)c1=O", "system": "bovine vascular smooth muscle cells (bVSMCs)", "result": "93.01*"}
{"molecule": "O=C1CCc2cc(OCCCCc3nnnn3C3CCCCC3)ccc2N1", "system": "bovine vascular smooth muscle cells (bVSMCs)", "result": "84.93*"}
{"molecule": "COc1ccc([C@@H]2Sc3ccccc3N(CCN(C)C)C(=O)[C@@H]2OC(C)=O)cc1", "system": "bovine vascular smooth muscle cells (bVSMCs)", "result": "143.28*"}
{"molecule": "NC(=O)c1cccc(N)c1 [3-AB, 3-aminobenzamide]", "system": "bovine vascular smooth muscle cells (bVSMCs)", "result": 94.64}
{"molecule": "COc1ccccc1Oc1c(NS(=O)(=O)c2ccc(C(C)(C)C)cc2)nc(-c2ncccn2)nc1OCCO [bosentan MH, Bosentan monohydrate]", "system": "bovine vascular smooth muscle cells (bVSMCs)", "result": 103.69}
{"molecule": "O=C1NCCc2c(OCCCCN3CCCCC3)cccc21", "system": "bovine vascular smooth muscle cells (bVSMCs)", "result": "89.46*"}
{"molecule": "CN(C)CC(=O)Nc1ccc2[nH]c(=O)c3ccccc3c2c1.Cl", "system": "bovine vascular smooth muscle cells (bVSMCs)", "result": "80.83*"}
